TEST METHOD NOTES: Agilent ZORBAX 300 SB-C18, 150 × 1 mm, 3.5 µm; A: water + 0.01% heptafluorobutyric acid; B: acetonitrile + 0.01% heptafluorobutyric acid; gradient (min/%B) 0/0 100/90
RECORDED CONDITIONS: stereoisomer not certain
OBSERVABLE: LC retention time (min)

[
  {
    "MOLECULE": "O=C(O)CCNc1cc(C(=O)O)ccc1C(=O)O",
    "OBSERVABLE": "LC retention time",
    "OBS VALUE": 7.69
  },
  {
    "MOLECULE": "c1ccc(N(c2ccccc2)c2ccccc2)cc1",
    "OBSERVABLE": "LC retention time",
    "OBS VALUE": 20.2
  },
  {
    "MOLECULE": "Cc1cc(C)cc(NC(=O)c2cc(-c3ccccc3)nc3ccccc23)c1",
    "OBSERVABLE": "LC retention time",
    "OBS VALUE": 17.9
  },
  {
    "MOLECULE": "Cc1ccc(-c2ccccc2)nc1C",
    "OBSERVABLE": "LC retention time",
    "OBS VALUE": 8.93
  },
  {
    "MOLECULE": "CCCCOc1ccccc1N",
    "OBSERVABLE": "LC retention time",
    "OBS VALUE": 10.8
  },
  {
    "MOLECULE": "CCCCc1c(O)n(-c2ccc(O)cc2)n(-c2ccccc2)c1=O",
    "OBSERVABLE": "LC retention time",
    "OBS VALUE": 12.8
  }
]

(A) CN1CCCNCC1
(B) CCN1CN(Cc2ccccc2)CNC1=S
Ask: // task: argmin of LC retention time over [ A , B ] Your answer should be the label attached to the chosen record.
Reply: A
(A: 6.55 min, B: 10.8 min)
